src = PubChem BioAssay AID588855

test: qHTS for Inhibitors of TGF-b; conditions: HepG2 CAGA-GFP TGF-b/SMAD3 reporter, GFP fluorescence, 18 h, TGF-beta stimulated, 500 pg/mL final; series mostly up to 46.1 µM; note: nearly all actives have a fitted effect of over 65% in size
Out of some 410,000 compounds screened, about 5,000 (1.2%) were called active. Inconclusive results (about 13%) are left out. The full list was thinned out, with actives kept by preference.

COMPOUND	outcome
Cc1ccc(-n2ncc3c(NCCCn4ccnc4)ncnc32)cc1Cl	inactive
CCC1=Nc2cc(C(=O)NCC(C)c3ccccc3)ccc2Sc2ccc(C)cc21 (stereo not drawn)	inactive
Cc1noc(C)c1S(=O)(=O)Nc1cc(C(F)(F)F)ccc1N1CCOCC1	inactive

###

test: qHTS for Inhibitors of TGF-b; settings: HepG2 CAGA-GFP TGF-b/SMAD3 reporter, GFP fluorescence, 18 h, TGF-beta stimulated, 500 pg/mL final; series mostly up to 46.1 µM; note: nearly all actives have a fitted effect of over 65% in size
The campaign covered roughly 410,000 compounds. About 5,000 (1.2%) were called active. Roughly 13% stayed inconclusive and do not appear here. Calls come from the whole dose curve; as a rule, active = well fitted inhibition curve with a large enough effect; inconclusive = small, poorly fitted or top-dose-only effect; inactive = no such curve, though single readings can be large or run the other way. The sample as a whole holds a higher share of actives than the screen did.
Would you mind answering with one of these outcomes? active, inactive

Previously resolved entries follow.
MOLECULE	ANSWER_LABEL
O=C(Nc1ccccc1Cl)N1CCC(CN2CCCC2)CC1	inactive
O=C(Nc1ccc(C2CC2(Cl)Cl)cc1)c1cccc([N+](=O)[O-])c1 (stereo not drawn)	active

Hi, sorry to bother you, what did the test record for COc1cc(NC(=O)c2noc3c2CSc2ccccc2-3)cc(OC)c1OC ? inactive

Hi, sorry to bother you, what did the test record for O=C(NC1(C(F)(F)F)N=C(c2ccccc2)N(C2CCCCC2)C1=O)c1ccccc1F (stereo not drawn) ? inactive

###

test: qHTS for Inhibitors of TGF-b; settings: HepG2 CAGA-GFP TGF-b/SMAD3 reporter, GFP fluorescence, 18 h, TGF-beta stimulated, 500 pg/mL final; series mostly up to 46.1 µM; note: nearly all actives have a fitted effect of over 65% in size
The campaign covered roughly 410,000 compounds. About 5,000 (1.2%) were called active. Another 13% or so got no clear call; they are omitted. The call rests on the fitted dose curve; in most records, active means well fitted inhibition curve with a large enough effect; inconclusive means small, poorly fitted or top-dose-only effect; inactive means no such curve, though single readings can be large or run the other way. What follows is part of a selection rich in actives, with near analogues and random picks from the rest.
Would you mind answering with one of these outcomes? yes (1) (active), no (0) (inactive)

Previously resolved entries follow.
COc1ccc(-n2c(SC)nc3sc4c(c3c2=O)CCN(C(C)=O)C4)cc1 no (0)
Cc1cccc(OCCSc2nc3ccccc3n2CC(=O)N2CCCCC2)c1C yes (1)
CN1C[C@@H](CO)O[C@@H](n2cnc3c(N4CCN(CCO)CC4)ncnc32)C1 no (0)
CCOc1ccc(Cl)cc1-c1cc(C(=O)NCc2cccs2)[nH]n1 no (0)

Hi, sorry to bother you, what did the test record for CCOc1ccc(OCCSc2nc3ccccc3n2CC(=O)O)cc1 ? no (0)

###

Test: qHTS for Inhibitors of TGF-b; note: nearly all actives have a fitted effect of over 65% in size
Settings: HepG2 CAGA-GFP TGF-b/SMAD3 reporter, GFP fluorescence, 18 h, TGF-beta stimulated, 500 pg/mL final; series mostly up to 46.1 µM
Text: TGF-b is a main component in the TGF-b signaling pathway which plays diverse roles in cellular and development pathways. TGF-b is the mediated by the transcription factors Smads. […] We aim to identify Smad3-small molecule antagonists using a quantitative high throughput screening (qHTS) approach. […] Concentration-response curves were fitted to the signals arising from the resulting fluorescence. […]
Out of some 410,000 compounds screened, about 5,000 (1.2%) were called active. Inconclusive results (about 13%) are left out. This is one part of a sample in which actives are shown more often than they occur.
MEASURE: outcome

O=C(CSc1ncc(-c2ccccc2)[nH]1)Nc1ccc(F)cc1F inactive
O=C1COc2ccc(-c3csc(-c4ccc(Cl)cc4)n3)cc2N1 inactive
O=C(CSc1nc2c(c(=O)[nH]1)CN(Cc1ccc3c(c1)OCO3)CC2)Nc1cc(F)ccc1F inactive

###

experiment: qHTS for Inhibitors of TGF-b; settings: HepG2 CAGA-GFP TGF-b/SMAD3 reporter, GFP fluorescence, 18 h, TGF-beta stimulated, 500 pg/mL final; series mostly up to 46.1 µM; note: nearly all actives have a fitted effect of over 65% in size
The whole screen tested about 410,000 compounds, of which about 5,000 (1.2%) were called active. Not shown: some 13% with an inconclusive outcome. The list comes from a sample in which actives are over-represented; it also holds close analogues and randomly drawn compounds.
MEASURE: outcome

COMPOUND	MEASURE	ENDPOINT_RESULT
COc1ccc(-c2ccc(OC)c(C3C4C=CCC(C)C4C(=O)N3Cc3ccccc3)c2)cc1C (stereo not drawn)	outcome	inactive
Cc1ccc(-c2nc3ccc(Cl)cn3c2Cc2ccccc2)cc1	outcome	inactive
Cc1nc2ccccn2c(=O)c1NC(=O)c1c(F)cccc1F	outcome	inactive

###

assay: qHTS for Inhibitors of TGF-b; settings: HepG2 CAGA-GFP TGF-b/SMAD3 reporter, GFP fluorescence, 18 h, TGF-beta stimulated, 500 pg/mL final; series mostly up to 46.1 µM; note: nearly all actives have a fitted effect of over 65% in size
Among all 410,000 compounds or so, about 5,000 (1.2%) were called active. Not shown: some 13% with an inconclusive outcome. Calls come from the whole dose curve; as a rule, active = well fitted inhibition curve with a large enough effect; inconclusive = small, poorly fitted or top-dose-only effect; inactive = no such curve, though single readings can be large or run the other way. The list comes from a sample in which actives are over-represented; it also holds close analogues and randomly drawn compounds.
Would you mind answering with one of these outcomes? active, inactive

COMPOUND	ANSWER_LABEL
CCOc1ccc2nc(C(=O)N3CCCC(C)C3)sc2c1 (centres undefined)	inactive
CCOc1ccc(NC(=O)CCc2c(C)nn(-c3ccc(N4CCCC4)nn3)c2C)cc1	inactive

Hi, sorry to bother you, what did the test record for O=C1c2ccccc2C(=O)N1c1ccc(S(=O)(=O)N2CCOCC2)c2ccccc12 ? inactive

Hi, sorry to bother you, what did the test record for CC(=O)c1ccc[n+](C(C)CCC(C)[n+]2cccc(C(C)=O)c2)c1 (centres undefined) ? inactive

Hi, sorry to bother you, what did the test record for COc1ccc(CCNC(=O)c2cnc3sc(N4CCCCCC4)nn3c2=O)cc1OC ? inactive

###

experiment: qHTS for Inhibitors of TGF-b; conditions: HepG2 CAGA-GFP TGF-b/SMAD3 reporter, GFP fluorescence, 18 h, TGF-beta stimulated, 500 pg/mL final; series mostly up to 46.1 µM; note: nearly all actives have a fitted effect of over 65% in size
Among all 410,000 compounds or so, about 5,000 (1.2%) were called active. Inconclusive results (about 13%) are left out. Calls follow the shape of the dose curve; as a rule, active = well fitted inhibition curve with a large enough effect; inconclusive = small, poorly fitted or top-dose-only effect; inactive = no such curve, though single readings can be large or run the other way. The list comes from a sample in which actives are over-represented; it also holds close analogues and randomly drawn compounds.
Would you mind answering with one of these outcomes? t (active), f (inactive)

MOLECULE	ANSWER_LABEL
C[C@]12c3[nH]c4ccc(Cl)cc4c3CCN1C(=O)[C@@H](CC(=O)NCCCn1ccnc1)C[C@@H]2C(=O)N1CCOCC1	f

Hi, sorry to bother you, what did the test record for C=C1C=C(C(F)F)n2ncc(C(=O)NCCc3ccccc3OC)c2N1 ? f

Hi, sorry to bother you, what did the test record for CCN(CCCNC(=O)c1ccc(Sc2ccc(C)cc2)c(NC(C)=O)c1)c1cccc(C)c1 ? f

Hi, sorry to bother you, what did the test record for COc1ccc(OCCNS(=O)(=O)Cc2ccccc2)cc1 ? f

###

test: qHTS for Inhibitors of TGF-b; settings: HepG2 CAGA-GFP TGF-b/SMAD3 reporter, GFP fluorescence, 18 h, TGF-beta stimulated, 500 pg/mL final; series mostly up to 46.1 µM; note: nearly all actives have a fitted effect of over 65% in size
Hit rate of the full screen: of about 410,000 compounds, about 5,000 (1.2%) were called active. Roughly 13% stayed inconclusive and do not appear here. Calls come from the whole dose curve; as a rule, active = well fitted inhibition curve with a large enough effect; inconclusive = small, poorly fitted or top-dose-only effect; inactive = no such curve, though single readings can be large or run the other way. Many of the other results were omitted from the sample, so actives are more common in it than they were.
Would you mind answering with one of these outcomes? active, inactive

Previously resolved entries follow.
COMPOUND	ANSWER_LABEL
COc1cccc(CNC(=O)C(NS(=O)(=O)c2ccc3nc(C)sc3c2)C(C)C)c1 (stereo not drawn)	inactive
CCOC(=O)c1c(S(=O)(=O)NCC(=O)Nc2ccc(Cl)c(C(F)(F)F)c2)c(C)n(C)c1C	active
COc1c(Cl)cc(Cl)cc1C(=O)Nc1cccc2cccnc12	inactive
O=C(CCS(=O)(=O)c1ccccc1)Nc1nc2c(s1)CCCC2	inactive
CCCCN(CC)C(=O)c1c[nH]c2ccc(S(=O)(=O)Nc3cccc(OC)c3)cc2c1=O	inactive
C[C@H]1CN(c2ccc(Br)cc2)C(=O)[C@@H]1CC(=O)Nc1ccc(Br)cc1	inactive
Nc1ncnc2nnsc12	inactive

Now consider a different compound.
Hi, sorry to bother you, what did the test record for CC(=O)/C(=N\Nc1ccc(Cl)cc1Cl)Sc1cccc2cccnc12 ? active

###

experiment: qHTS for Inhibitors of TGF-b; details: HepG2 CAGA-GFP TGF-b/SMAD3 reporter, GFP fluorescence, 18 h, TGF-beta stimulated, 500 pg/mL final; series mostly up to 46.1 µM; note: nearly all actives have a fitted effect of over 65% in size
Out of some 410,000 compounds screened, about 5,000 (1.2%) were called active. Not shown: some 13% with an inconclusive outcome. Calls follow the shape of the dose curve; as a rule, active = well fitted inhibition curve with a large enough effect; inconclusive = small, poorly fitted or top-dose-only effect; inactive = no such curve, though single readings can be large or run the other way. The sample holds actives, similar compounds and a random draw of the others, so the mix is not that of the screen.
Would you mind answering with one of these outcomes? T = active, F = inactive

Cc1ccc(Nc2nc(-c3ccc(O)cc3O)cs2)nc1 T
O=C(Nc1ccc2ccccc2c1[N+](=O)[O-])c1ccccc1 F
CCc1ccc(NC(=O)c2nn(-c3ccc(C)cc3)c(=O)n(C)c2=O)cc1 F

Hi, sorry to bother you, what did the test record for CCCOc1cccc(C(=O)Nc2cccc(NC(=O)c3ccc(C(C)(C)C)cc3)c2)c1 ? F
